TGT: T1, BsSmcH-CC100 (Bacillus subtilis, UniProt P51834 400-776)
T1 sequence: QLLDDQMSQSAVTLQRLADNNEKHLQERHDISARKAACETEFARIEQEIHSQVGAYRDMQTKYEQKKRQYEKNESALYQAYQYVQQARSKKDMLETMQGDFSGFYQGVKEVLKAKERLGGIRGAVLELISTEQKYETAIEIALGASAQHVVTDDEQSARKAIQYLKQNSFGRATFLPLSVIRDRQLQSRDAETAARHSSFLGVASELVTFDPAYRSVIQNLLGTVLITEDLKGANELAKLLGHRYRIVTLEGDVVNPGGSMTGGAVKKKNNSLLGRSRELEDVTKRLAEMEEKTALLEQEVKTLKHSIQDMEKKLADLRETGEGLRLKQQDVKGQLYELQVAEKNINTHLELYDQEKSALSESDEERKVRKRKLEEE
PROTOCOL: fluorescence anisotropy
pKd: −log10 of the molar value.
ASSAY_ENDPOINT: pKd

* ds40 (dsDNA) DNA 1: TTAGTTGTTCGTAGTGCTCGTCTGGCTCTGGATTACCCGC DNA 2: GCGGGTAATCCAGAGCCAGACGAGCACTACGAACAACTAA | ~7.00

src = paper PMC4306524
